Cited source: patent US7566718B2

pIC50 values by entry
biological target: human CXCR3 (N-delta 4) (Homo sapiens, UniProt P49682); construct: CD8 leader (N); Flag tag; expressed in transfected cells; membrane preparation; assay: Human CXCR3 (N-delta 4) scintillation proximity assay (SPA), [125I] IP-10 binding to Ba/F3-hCXCR3 membranes; conditions: IC50 rating; [125I] IP-10 displacement, human CXCR3; read-out: IC50
pIC50: −log10 of the molar value.

compound	pIC50
CCNC(=O)Nc1ccc(N2CCN(C3CCN(Cc4ccc(Cl)cc4)CC3)[C@@H](CC)C2)c(Cl)c1	< 7.00
C[C@@H]1CN(C2CCN(Cc3ccc(Cl)cc3F)CC2)[C@@H](C)CN1c1ncc(NS(C)(=O)=O)cc1Cl	< 7.00
CC[C@H]1CN(c2ncc(NC3=NS(=O)(=O)N=C3N(C)C)cc2Cl)CCN1C1CCN(Cc2ccc(OC(F)(F)F)cc2)CC1	< 7.00
CC[C@H]1CN(c2ncc(Nc3c(NC4CC4)c(=O)c3=O)cc2Cl)CCN1C1CCN(Cc2ccc(OC(F)F)cc2)CC1	> 7.60

Input line: Could you share which pIC50 value was measured for CC[C@H]1CN(c2ncc(NC3=NS(=O)(=O)N=C3NC)cc2Cl)CCN1C1CCN(Cc2ccc(Cl)cc2C#N)CC1 ?
Output line: 7.00 to 7.60

Input line: Another compound to look at: Cc1ccc(CN2CCC(N3CCN(c4ncc(NS(C)(=O)=O)cc4Cl)C[C@@H]3C)CC2)c(C)c1
Output line: < 7.00

Input line: Also CC[C@H]1CN(c2ncc(NS(C)(=O)=O)cc2Cl)CCN1C1CCN(C(C(=O)OC)c2ccc(Cl)cc2)CC1 (stereo partly drawn) [Compound 39] ?
Output line: 7.00 to 7.60

Input line: Another: CC[C@H]1CN(c2ncc(-n3cccn3)cc2Cl)CCN1C1CCN(Cc2ccc(OC(F)(F)F)cc2)CC1
Output line: 7.00 to 7.60

Input line: Request: CC[C@H]1CN(c2ncc(Nc3c(NC4CC4)c(=O)c3=O)cc2Cl)CCN1C1CCN(C(=O)c2ccc(Cl)cc2N)CC1
Output line: 7.00 to 7.60

Input line: What do we get for C[C@H]1CN(c2ncc(NC(=O)c3ccc(Cl)cc3)cc2Cl)CCN1C1CCN(Cc2ccc(Cl)cc2)CC1 ?
Output line: < 7.00

====

Molecular target: human CXCR3 (N-delta 4) (Homo sapiens, UniProt P49682)
Construct: CD8 leader (N); Flag tag; expressed in transfected cells; membrane preparation
Sequence (P49682 5-368 limits assumed): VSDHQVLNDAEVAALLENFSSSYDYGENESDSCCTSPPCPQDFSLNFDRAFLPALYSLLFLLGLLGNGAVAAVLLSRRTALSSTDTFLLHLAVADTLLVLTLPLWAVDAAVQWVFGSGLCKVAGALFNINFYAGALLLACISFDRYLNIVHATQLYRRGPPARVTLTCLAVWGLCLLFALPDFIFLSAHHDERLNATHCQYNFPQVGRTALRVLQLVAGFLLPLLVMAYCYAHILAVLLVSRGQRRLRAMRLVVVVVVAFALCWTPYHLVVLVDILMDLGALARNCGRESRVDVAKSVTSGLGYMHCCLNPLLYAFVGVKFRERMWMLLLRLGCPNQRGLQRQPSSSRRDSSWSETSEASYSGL
Test: Human CXCR3 (N-delta 4) scintillation proximity assay (SPA), [125I] IP-10 binding to Ba/F3-hCXCR3 membranes
Settings: IC50 rating; [125I] IP-10 displacement, human CXCR3; read-out: IC50
pIC50: −log10 of the molar value.
reportedProperty: pIC50

Answered examples (2):
CC[C@H]1CN(c2ncc(NS(C)(=O)=O)cc2Cl)CCN1C1CCN([C@@H](C(N)=O)c2ccc(Cl)cc2)CC1 < 7.00
Cc1cc(Nc2c(NCC(F)(F)F)c(=O)c2=O)cnc1N1C[C@@H](C)N(C2CCN(C(=O)c3ccc(C#N)cc3)CC2)C[C@@H]1C < 7.00

Input line: Reported pIC50 for CC[C@H]1CN(c2ncc(Nc3c(NCC(=O)O)c(=O)c3=O)cc2Cl)CCN1C1CCN([C@H](CO)c2ccc(Cl)cc2)CC1 : what is it?
Output line: < 7.00
